molecular target: SfurOBP11 (Sogatella furcifera); experiment: biochemical; type: binding; conditions: ligand concentration 12, replicate 3
Sequence (V5T6E3 entry or part of it): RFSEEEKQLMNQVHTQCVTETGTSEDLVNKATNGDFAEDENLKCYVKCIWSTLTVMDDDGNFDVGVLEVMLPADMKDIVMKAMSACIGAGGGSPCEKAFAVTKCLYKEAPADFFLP
For each entry below, report its Fluorescence intensity, fluorescence competitive binding assay, OBP11 value.
Please give only the number in your answer, with no unit.

The measured Fluorescence intensity, fluorescence competitive binding assay, OBP11 that COC(=O)c1ccccc1 showed for SfurOBP11 (Sogatella furcifera) is 23760

The measured Fluorescence intensity, fluorescence competitive binding assay, OBP11 that OC1CCCCC1 showed for SfurOBP11 (Sogatella furcifera) is 24428

The measured Fluorescence intensity, fluorescence competitive binding assay, OBP11 that CCCCCCCCCCCCCCCCCCC showed for SfurOBP11 (Sogatella furcifera) is 34546

The measured Fluorescence intensity, fluorescence competitive binding assay, OBP11 that C=CC(C)(O)CCC=C(C)C (centres unmarked) showed for SfurOBP11 (Sogatella furcifera) is 32147

The measured Fluorescence intensity, fluorescence competitive binding assay, OBP11 that CC/C=C\CCO [(Z)-3-hexenol] showed for SfurOBP11 (Sogatella furcifera) is 19925

The measured Fluorescence intensity, fluorescence competitive binding assay, OBP11 that C/C(=C\CO)CCC[C@H](C)CCC[C@H](C)CCCC(C)C showed for SfurOBP11 (Sogatella furcifera) is 20835

The measured Fluorescence intensity, fluorescence competitive binding assay, OBP11 that C=CC(C)(O)CCC=C(C)CCC=C(C)C (mixture of isomers) showed for SfurOBP11 (Sogatella furcifera) is 22210

The measured Fluorescence intensity, fluorescence competitive binding assay, OBP11 that Cc1ccc(C(C)C)cc1 showed for SfurOBP11 (Sogatella furcifera) is 23450

The measured Fluorescence intensity, fluorescence competitive binding assay, OBP11 that CCCCCC=O showed for SfurOBP11 (Sogatella furcifera) is 22770

The measured Fluorescence intensity, fluorescence competitive binding assay, OBP11 that CC(=O)c1ccccc1 showed for SfurOBP11 (Sogatella furcifera) is 20925

The measured Fluorescence intensity, fluorescence competitive binding assay, OBP11 that C=C(C)C1CC=C(C)CC1 (single isomer, unassigned; (+)) [(+)-limonene] showed for SfurOBP11 (Sogatella furcifera) is 20491

The measured Fluorescence intensity, fluorescence competitive binding assay, OBP11 that CCCCCCCCCCCCCCCCCC showed for SfurOBP11 (Sogatella furcifera) is 28868

The measured Fluorescence intensity, fluorescence competitive binding assay, OBP11 that O=C(c1ccccc1)c1ccccc1 showed for SfurOBP11 (Sogatella furcifera) is 17057

The measured Fluorescence intensity, fluorescence competitive binding assay, OBP11 that CCCCCCCCC=O showed for SfurOBP11 (Sogatella furcifera) is 27193

The measured Fluorescence intensity, fluorescence competitive binding assay, OBP11 that CCCCCCCCCCCCCCCC showed for SfurOBP11 (Sogatella furcifera) is 19737

The measured Fluorescence intensity, fluorescence competitive binding assay, OBP11 that c1ccc2ccccc2c1 showed for SfurOBP11 (Sogatella furcifera) is 27824

The measured Fluorescence intensity, fluorescence competitive binding assay, OBP11 that CCC/C=C/CO [(E)-2-hexenol] showed for SfurOBP11 (Sogatella furcifera) is 24242

The measured Fluorescence intensity, fluorescence competitive binding assay, OBP11 that CCCCCCCCCCCCCCCC(=O)OC [MH(methyl hexadecanoate)] showed for SfurOBP11 (Sogatella furcifera) is 44132

The measured Fluorescence intensity, fluorescence competitive binding assay, OBP11 that O=Cc1ccccc1 showed for SfurOBP11 (Sogatella furcifera) is 22549

The measured Fluorescence intensity, fluorescence competitive binding assay, OBP11 that CCCCCCC=CCO showed for SfurOBP11 (Sogatella furcifera) is 30957

The measured Fluorescence intensity, fluorescence competitive binding assay, OBP11 that CC1=CC[C@@H](C(C)(C)O)CC1 showed for SfurOBP11 (Sogatella furcifera) is 22406

The measured Fluorescence intensity, fluorescence competitive binding assay, OBP11 that C[C@@H]1CC[C@H]2C(C)(C)[C@H]3C[C@@]12CC[C@@]3(C)O showed for SfurOBP11 (Sogatella furcifera) is 35927

The measured Fluorescence intensity, fluorescence competitive binding assay, OBP11 that C=C1CC/C=C(\C)CC[C@@H]2[C@@H]1CC2(C)C showed for SfurOBP11 (Sogatella furcifera) is 23358
